experiment: Antiosteoporotic activity in C57BL/6 mouse MC3T3-E1 cells assessed as increase in collagen synthesis at 5 uM by Sirius Red-based colorimetric assay relative to control; assay type: functional

- MOLECULE: "C[C@@H]1O[C@@H](O[C@H]2[C@H](Oc3c(-c4ccc(O)c(O)c4)oc4cc(O)cc(O)c4c3=O)O[C@H](CO)[C@H](O)[C@@H]2O)[C@H](O)[C@H](O)[C@H]1O"
  Activity: "224.92%"
- MOLECULE: "C[C@@H]1O[C@@H](OC[C@H]2O[C@@H](Oc3c(-c4ccc(O)c(O)c4)oc4cc(O)cc(O)c4c3=O)[C@H](O)[C@@H](O)[C@@H]2O)[C@H](O)[C@H](O)[C@H]1O [RUTIN]"
  Activity: "233.08%"
- MOLECULE: "Oc1cc(O)c2c(c1)O[C@@]1(c3ccc(O)c(O)c3)O[C@H]1[C@@H]2c1c(O)cc(O)c2c1O[C@H](c1ccc(O)c(O)c1)[C@H](O)C2"
  Activity: "240.74%"
- MOLECULE: "O=c1c(O[C@@H]2O[C@H](CO)[C@@H](O)[C@H](O)[C@H]2O)c(-c2ccc(O)c(O)c2)oc2cc(O)cc(O)c12 [ISOQUERCETIN]"
  Activity: "261.95%"
- MOLECULE: "Oc1ccc([C@@]23Oc4cc(O)cc(O)c4[C@@H](c4c(O)cc(O)c5c4O[C@H](c4ccc(O)c(O)c4)[C@H](O)C5)[C@@H]2O3)cc1"
  Activity: "179.68%"
- MOLECULE: "Oc1cc(O)c2c(c1)O[C@H](c1ccc(O)c(O)c1)[C@H](O)C2 [(-)-EPICATECHIN]"
  Activity: "246.13%"
